- Test system: LOC_OS02G17970-cb001;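 note: purified Escherichia coli-expressed rice kinase domain construct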
- assay-comment: thermal shift delta Tm vs DMSO control; higher = stronger stabilization (binding)
- measurement-parameters: 12.5 µM; protein concentration 2 µM
observable: thermal shift delta Tm (°C)
Express the result in °C but write the number alone.

Example results:
CCN(CC)CCCCNc1ncc2cc(-c3cc(OC)cc(OC)c3)c(NC(=O)NC(C)(C)C)nc2n1	0.18
COc1cc2c(Oc3ccc(NC(=O)C4(C(=O)Nc5ccc(F)cc5)CC4)cc3F)ccnc2cc1OCCCN1CCOCC1	0.62
CCOC(=O)c1cnc2ccc(-c3cncc(NS(=O)(=O)c4ccccc4)c3)cn12	0.87
CC(C)c1cnn2c(NCc3ccccc3-n3cccn3)nc(OC3CCCNC3)nc12 (stereo not given)	2.44
Oc1c2ccccc2c2c3c(cccc13)N=N2	0.82
O=C1NC(=O)/C(=C/c2ccc3nccc(-c4ccncc4)c3c2)S1	0.7
NC(=O)Nc1cc(-c2cccc(F)c2)sc1C(=O)N[C@H]1CCCNC1	0.89
O=C(Nc1ccccc1C(=O)NC1CCCCNC1=O)c1cc2ccccc2s1 (stereo not given)	0.88
COc1cc2ncnc(Oc3ccc(CC(=O)Nc4cnn(C(C)C)c4)cc3)c2cc1OC	0.84
Cc1n[nH]c2ncc(C(=O)N3CCC[C@H]3c3ccc(Cl)cc3)cc12	0.38

Please examine the following record next.
[in] Quickly give me recorded thermal shift delta Tm for `O=C(NCc1cccc(O)c1)Nc1nc(-c2ccncc2)cs1`
[out] 0.34
